Values from paper PMC6691788

system: MCF-7; assay: In vitro cytotoxic activity, SRB assay; assay type: cell-based; settings: Homo sapiens, MCF7; MCF-7, 48h
Kindly state IC50 for each of the entries shown.

Give me measured IC50, please, for this molecule: Cc1nnc(Nc2ccc(NC(=O)Nc3ccc(Cl)c(C(F)(F)F)c3)cc2)c2ccccc12 [Compound 6f]
3.2 µM

Give me measured IC50, please, for this molecule: Cc1nnc(Oc2ccc(NC(=O)Nc3ccc(Cl)c(C(F)(F)F)c3)cc2)c2ccccc12 [Compound 7f]
31 µM

Give me measured IC50, please, for this molecule: O=C(Nc1ccc(Nc2nnc(Cl)c3ccccc23)cc1)Nc1ccc(Cl)c(C(F)(F)F)c1 [Compound 12c]
> 1000 µM

Give me measured IC50, please, for this molecule: Fc1ccccc1N1CCN(c2nncc3ccccc23)CC1 [Compound 8c]
32.4 µM

Give me measured IC50, please, for this molecule: O=C(Nc1ccc(Nc2nncc3ccccc23)cc1)Nc1ccc(Cl)c(C(F)(F)F)c1 [Compound 6c]
6.2 µM

Give me measured IC50, please, for this molecule: O=C(Nc1ccccc1)Nc1ccc(Nc2nnc(Cl)c3ccccc23)cc1 [Compound 12a]
81.3 µM

Give me measured IC50, please, for this molecule: Clc1ccc(Nc2nnc(CNc3cccc(Cl)c3)c3ccccc23)cc1 [Compound 16b]
91 µM

Give me measured IC50, please, for this molecule: O=C(Nc1ccc(Nc2nncc3ccccc23)cc1)c1ccccc1 [Compound 5a]
> 1000 µM

Give me measured IC50, please, for this molecule: Cc1nnc(Nc2ccc(NC(=O)c3ccccc3)cc2)c2ccccc12 [Compound 5c]
22.9 µM

###

test system: SF-295; assay: NCI 60 cell panel SRB screen; type: cell-based; conditions: Homo sapiens; SF-295, single dose 10 μM; read-out: percent cell growth promotion
# label = MET if activity at 10 µM >= 90% else NOT MET

Reported activity at 10 µM reaches at least 90% for CCOC(=O)N1CCN(c2nnc(C)c3ccccc23)CC1 [Compound 8f] ?
MET

Reported activity at 10 µM reaches at least 90% for O=C(Nc1ccc(Cl)cc1)Nc1ccc(Oc2nncc3ccccc23)cc1 [Compound 7b] ?
NOT MET

Reported activity at 10 µM reaches at least 90% for Cc1nnc(N2CCN(c3ccccc3)CC2)c2ccccc12 [Compound 8g] ?
MET

Reported activity at 10 µM reaches at least 90% for CCOC(=O)N1CCN(c2nncc3ccccc23)CC1 [Compound 8a] ?
MET

Reported activity at 10 µM reaches at least 90% for Cc1nnc(N2CCN(c3ccccc3F)CC2)c2ccccc12 [Compound 8h] ?
MET

Reported activity at 10 µM reaches at least 90% for c1ccc(N2CCN(c3nncc4ccccc34)CC2)nc1 [Compound 8d] ?
MET

Reported activity at 10 µM reaches at least 90% for COc1cccc(NCc2nnc(Nc3ccc(Cl)cc3)c3ccccc23)c1 [Compound 16d] ?
NOT MET

Reported activity at 10 µM reaches at least 90% for Clc1ccc(Nc2nnc(CNc3ccccc3)c3ccccc23)cc1 [Compound 16a] ?
NOT MET

Reported activity at 10 µM reaches at least 90% for Cc1nnc(Nc2ccc(NC(=O)c3ccc(Cl)cc3)cc2)c2ccccc12 [Compound 5d] ?
MET

Reported activity at 10 µM reaches at least 90% for O=C(Nc1ccc(Cl)cc1)Nc1ccc(Nc2nncc3ccccc23)cc1 [Compound 6b] ?
NOT MET

Reported activity at 10 µM reaches at least 90% for O=C(Nc1ccccc1)Nc1ccc(Oc2nnc(Cl)c3ccccc23)cc1 [Compound 13a] ?
NOT MET

Reported activity at 10 µM reaches at least 90% for Cc1nnc(Nc2ccc(NC(=O)Nc3ccc(Cl)cc3)cc2)c2ccccc12 [Compound 6e] ?
NOT MET

Reported activity at 10 µM reaches at least 90% for Clc1ccc(Nc2nnc(COc3ccccc3)c3ccccc23)cc1 [Compound 17a] ?
NOT MET

Reported activity at 10 µM reaches at least 90% for O=C(Nc1ccc(Nc2nncc3ccccc23)cc1)c1ccc(Cl)cc1 [Compound 5b] ?
MET

###

Kindly state IC50 for each of the entries shown.
Quick note: give the figure in µM, leave out the unit.

Supply IC50 measured with VEGFR-2 tyrosine kinase (Homo sapiens) for O=C(Nc1ccc(Nc2nnc(Cl)c3ccccc23)cc1)Nc1ccc(Cl)c(C(F)(F)F)c1 [Compound 12c] .
Sequence (P35968 20-1356): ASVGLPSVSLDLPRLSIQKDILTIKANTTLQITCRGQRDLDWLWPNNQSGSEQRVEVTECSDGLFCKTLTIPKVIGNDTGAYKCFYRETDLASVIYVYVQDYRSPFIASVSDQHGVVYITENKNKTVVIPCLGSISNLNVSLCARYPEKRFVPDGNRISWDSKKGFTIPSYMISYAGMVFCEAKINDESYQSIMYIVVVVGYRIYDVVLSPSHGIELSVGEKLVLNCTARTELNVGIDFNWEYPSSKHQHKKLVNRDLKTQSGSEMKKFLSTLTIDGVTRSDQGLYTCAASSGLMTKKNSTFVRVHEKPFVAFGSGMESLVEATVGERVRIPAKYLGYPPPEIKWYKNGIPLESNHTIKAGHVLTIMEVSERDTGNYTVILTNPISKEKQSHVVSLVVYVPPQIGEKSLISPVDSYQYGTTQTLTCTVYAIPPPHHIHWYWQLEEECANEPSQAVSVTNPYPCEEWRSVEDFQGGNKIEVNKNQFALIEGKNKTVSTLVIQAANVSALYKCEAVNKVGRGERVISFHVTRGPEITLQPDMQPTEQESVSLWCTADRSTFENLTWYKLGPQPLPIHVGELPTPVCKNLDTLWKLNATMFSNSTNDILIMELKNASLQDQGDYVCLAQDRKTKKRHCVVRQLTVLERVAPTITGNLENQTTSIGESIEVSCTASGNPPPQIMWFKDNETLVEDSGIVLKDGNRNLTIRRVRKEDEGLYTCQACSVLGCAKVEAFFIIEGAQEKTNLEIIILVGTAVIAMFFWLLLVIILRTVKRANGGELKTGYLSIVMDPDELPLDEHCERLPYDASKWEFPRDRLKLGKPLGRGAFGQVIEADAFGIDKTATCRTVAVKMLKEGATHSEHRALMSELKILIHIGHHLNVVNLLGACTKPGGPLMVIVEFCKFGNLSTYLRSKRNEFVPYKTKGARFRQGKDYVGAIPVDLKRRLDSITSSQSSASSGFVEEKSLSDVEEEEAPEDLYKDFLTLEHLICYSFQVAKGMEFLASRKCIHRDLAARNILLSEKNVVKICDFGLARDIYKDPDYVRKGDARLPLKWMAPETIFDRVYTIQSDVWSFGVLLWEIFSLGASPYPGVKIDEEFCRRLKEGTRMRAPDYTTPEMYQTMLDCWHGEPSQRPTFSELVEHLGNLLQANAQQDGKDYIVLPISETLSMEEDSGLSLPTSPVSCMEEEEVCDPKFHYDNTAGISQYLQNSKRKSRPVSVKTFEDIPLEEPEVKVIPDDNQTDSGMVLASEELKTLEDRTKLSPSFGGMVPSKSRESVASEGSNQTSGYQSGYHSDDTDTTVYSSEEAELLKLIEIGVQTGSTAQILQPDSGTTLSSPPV
2.7

Supply IC50 measured with VEGFR-2 tyrosine kinase (Homo sapiens) for O=C(Nc1ccc(Cl)cc1)Nc1ccc(Nc2nnc(Cl)c3ccccc23)cc1 [Compound 12b] .
4.4

Supply IC50 measured with VEGFR-2 tyrosine kinase (Homo sapiens) for O=C(Nc1ccc(Nc2nncc3ccccc23)cc1)Nc1ccc(Cl)c(C(F)(F)F)c1 .
13.4

###

Kindly state TGI for each of the entries shown.
system: CAKI-1; assay: NCI 60 cell panel SRB screen; format: cell-based, human; settings: CAKI-1, 5 log dose
Number first, unit second.

Supply TGI measured with CAKI-1 for O=C(Nc1ccccc1)Nc1ccc(Oc2nnc(Cl)c3ccccc23)cc1 [Compound 13a] .
14.3 µM

Supply TGI measured with CAKI-1 for O=C(Nc1ccc(Cl)cc1)Nc1ccc(Nc2nncc3ccccc23)cc1 .
12.5 µM

Supply TGI measured with CAKI-1 for O=C(Nc1ccc(Cl)cc1)Nc1ccc(Oc2nncc3ccccc23)cc1 .
8.70 µM

Supply TGI measured with CAKI-1 for Cc1nnc(Nc2ccc(NC(=O)Nc3ccc(Cl)cc3)cc2)c2ccccc12 .
12.8 µM

###

system: SK-OV-3; assay: NCI 60 cell panel SRB screen; format: cell-based; details: Homo sapiens; SK-OV-3, 5 log dose, 48 h; read-out: LC50 (the source's name)
Kindly state CC50 for each of the entries shown.
Quick note: give the figure in µM, leave out the unit.

Supply CC50 measured with SK-OV-3 for Cc1nnc(Nc2ccc(NC(=O)Nc3ccc(Cl)cc3)cc2)c2ccccc12 .
30.7

Supply CC50 measured with SK-OV-3 for O=C(Nc1ccccc1)Nc1ccc(Oc2nnc(Cl)c3ccccc23)cc1 [Compound 13a] .
16.6

Supply CC50 measured with SK-OV-3 for O=C(Nc1ccc(Cl)cc1)Nc1ccc(Oc2nncc3ccccc23)cc1 .
27.2

###

system: OVCAR-5; assay: NCI 60 cell panel SRB screen; type: cell-based; details: Homo sapiens; OVCAR-5, 5 log dose, 48 h; read-out: LC50 (the source's name)
Test Readout: CC50

Give me measured CC50, please, for this compound: Clc1ccc(Nc2nnc(COc3ccccc3)c3ccccc23)cc1 [Compound 17a]
> 25 µM

Give me measured CC50, please, for this compound: COc1cccc(NCc2nnc(Nc3ccc(Cl)cc3)c3ccccc23)c1 [Compound 16d]
> 25 µM

Give me measured CC50, please, for this compound: Clc1ccc(Nc2nnc(CNc3ccccc3)c3ccccc23)cc1 [Compound 16a]
> 25 µM

Give me measured CC50, please, for this compound: O=C(Nc1ccc(Cl)cc1)Nc1ccc(Oc2nncc3ccccc23)cc1
12.6 µM

Give me measured CC50, please, for this compound: Cc1nnc(Nc2ccc(NC(=O)Nc3ccc(Cl)cc3)cc2)c2ccccc12
18.7 µM

Give me measured CC50, please, for this compound: O=C(Nc1ccccc1)Nc1ccc(Oc2nnc(Cl)c3ccccc23)cc1 [Compound 13a]
> 25 µM

Give me measured CC50, please, for this compound: O=C(Nc1ccc(Cl)cc1)Nc1ccc(Nc2nncc3ccccc23)cc1
> 100 µM

###

Kindly state log10 IC (TGI) for each of the entries shown.
tested on: DU-145; experiment: NCI 60 cell panel SRB screen; format: cell-based; settings: Homo sapiens; DU-145, 5 log dose
A value of 2 here means IC (TGI) of 100 in µM, since values are log10.

Give me measured log10 IC (TGI), please, for this compound: O=C(Nc1ccc(Cl)cc1)Nc1ccc(Nc2nncc3ccccc23)cc1
1.43

Give me measured log10 IC (TGI), please, for this compound: O=C(Nc1ccccc1)Nc1ccc(Oc2nnc(Cl)c3ccccc23)cc1 [Compound 13a]
1.02

Give me measured log10 IC (TGI), please, for this compound: O=C(Nc1ccc(Cl)cc1)Nc1ccc(Oc2nncc3ccccc23)cc1
0.32

Give me measured log10 IC (TGI), please, for this compound: COc1cccc(NCc2nnc(Nc3ccc(Cl)cc3)c3ccccc23)c1 [Compound 16d]
0.81

Give me measured log10 IC (TGI), please, for this compound: Cc1nnc(Nc2ccc(NC(=O)Nc3ccc(Cl)cc3)cc2)c2ccccc12
1.29

Give me measured log10 IC (TGI), please, for this compound: Clc1ccc(Nc2nnc(COc3ccccc3)c3ccccc23)cc1 [Compound 17a]
1.02

###

tested on: SNB-75; assay: NCI 60 cell panel SRB screen; format: cell-based; conditions: Homo sapiens; SNB-75, 5 log dose, 48 h
Kindly state LC50 (concentration killing 50% of cells) for each of the entries shown.
Quick note: give the figure in µM, leave out the unit.

Give me measured LC50 (concentration killing 50% of cells), please, for this compound: O=C(Nc1ccc(Cl)cc1)Nc1ccc(Oc2nncc3ccccc23)cc1
5.2

Give me measured LC50 (concentration killing 50% of cells), please, for this compound: COc1cccc(NCc2nnc(Nc3ccc(Cl)cc3)c3ccccc23)c1 [Compound 16d]
23.1

Give me measured LC50 (concentration killing 50% of cells), please, for this compound: O=C(Nc1ccccc1)Nc1ccc(Oc2nnc(Cl)c3ccccc23)cc1 [Compound 13a]
21.3

Give me measured LC50 (concentration killing 50% of cells), please, for this compound: O=C(Nc1ccc(Cl)cc1)Nc1ccc(Nc2nncc3ccccc23)cc1
31.8

Give me measured LC50 (concentration killing 50% of cells), please, for this compound: Cc1nnc(Nc2ccc(NC(=O)Nc3ccc(Cl)cc3)cc2)c2ccccc12
21.3
